test: soluble on expression in E. coli; label from the status in PepcDB or PDB records
OUTCOME_MEASURE: soluble on expression in E. coli

Record excerpt, results attached:
MGSSHHHHHHSQDPTVPAQLQFSAKTLDGHDFHGESLLGKPAVLWFWAPWCPTCQGEAPVVGQVAASHPEVTFVGVAGLDQVPAMQEFVNKYPVKTFTQLADTDGSVWANFGVTQQPAYAFVDPHGNVDVVRGRMSQDELTRRVTALTSR : soluble
MVRVVIESELVRTEKELPNSLKLRQFKDRLYHVTGVEPEDMEIVVKRQYDNKEIYSTKKGGAYSNEDEDANFLKGEEELIVVVTDSNAQSISNQLATQAEGIPSMEVISEEDYLRRDQSVLRWKMAHGYGRFNAAQQSQRAALAKQDEAYAREQLTAAIGRHCRVTVDGSAPREAILRYVGPLPLDVMGTWCGVEFPEAAGKNDGRINGVTLFGPVAPGHGSFVRPRAVEILSKDEESAEVEDVHDDVESDDEI : soluble
MRHSLWLLLAAILSLPAQAGTECRDIHDRDLRRMCNALERGDSGDCGDIDSRDMRRYCGALLAPGQRYDCDDIRDGDTRRQCRAIVRGDRKRCDDIDSRDMRRQCRAVVSRAPWQCDGIDDRDMRRICRVILSR : soluble
MAHHHHHHMWNLNRLYRQNELSMHGVRNNHDIIVVRQVNISDKNNPDNYLHNQNNTNTSIKQNPQSVILNEKELLNLVQNFNHINRKHKGFCETSIFKNSTFSNTNNEHNGEDSFNTYLIIDKWKTKREFEKSKKEFEKLFAHKNHLYDKKMEDIYLNYEMYNNNYETVSAQNIFQKLYYFIFD : not soluble
MGSHHHHHHDITSLYKKAGSAAAVLEENLYFGGSFTMDMAADIASDHFISRRVDIGRITLNVREKGSGPLMLFFHGITSNSAVFEPLMIRLSDRFTTIAVDQRGHGLSDKPETGYEANDYADDIAGLIRTLARGHAILVGHSLGARNSVTAAAKYPDLVRSVVAIDFTPYIETEALDALEARVNAGSQLFEDIKAVEAYLAGRYPNIPADAIRIRAESGYQPVDGGLRPLASSAAMAQTARGLRSDLVPAYRDVTKPVLIVRGESSKLVSAAALAKTSRLRPDLPVVVVPGADHYVNEVSPEITLKAITNFIDA : soluble
MGSDKIHHHHHHMTKLQLKYRELKIISVIAASENISHAATVLGIAQANVSKYLADFESKVGLKVFDRTTRQLMLTPFGTALLPYINDMLDRNEQLNNFIADYKHEKRGRVTIYAPTGIITYLSKHVIDKIKDIGDITLSLKTCNLERNAFYEGVEFPDDCDVLISYAPPKDESLVASFITQYAVTAYASQRYLEKHPISRPDELEHHSCILIDSMMIDDANIWRFNVAGSKEVRDYRVKGNYVCDNTQSALELARNHLGIVFAPDKSVQSDLQDGTLVPCFQQPYEWWLDLVAIFRKREYQPWRVQYVLDEMLREIRHQLAQSQQLRPEQAAESED : not soluble
MGHHHHHHSHMACAEFSFHVPSLEELAGVMQKGLKDNFADVQVSVVDCPDLTKEPFTFPVKGICGKTRIAEVGGVPYLLPLVNQKKVYDLNKIAKEIKLPGAFILGAGAGPFQTLGFNSEFMPVIQTESEHKPPVNGSYFAHVNPADGGCLLEKYSEKCHDFQCALLANLFASEGQPGKVIEVKAKRRTGPLNFVTCMRETLEKHYGNKPIGMGGTFIIQKGKVKSHIMPAEFSSCPLNSDEEVNKWLHFYEMKAPLVCLPVFVSRDPGFDLRLEHTHFFSRHGEGGHYHYDTTPDIVEYLGYFLPAEFLYRIDQPKETHSIGRD : soluble
MSRRSNRTINLPAPYLKRIWLDPSQVHDREAYPFCLPIFPDDFELSFDAAITIIVGENGTGKSTILEGIAALAGYDDAGGGKGYMPVDHSDAREKMGGQLSKALRASWLPKITNGWFFRAESFFSVARYLDKAARDAGQVGPDFLSHSHGEGFLRFFEERCQRQGIFIFDEPESALSPARQIEFLKLLRRMDDSRICQVIMATHSPMLMAYPNAKLLRLGKYGLEPVTVEETDHYRLMREFCDDPRGFVEATLAELEHHHHHH : soluble
AIANGTELRETLEDLIKEVVQASREALDTQGELNERNEAALRTLEAQWRQRLIEELHEQGSLRVVLCRTDLLVPGSGATGTTTTNRTDPLRYVYETLRQRDPRERRRSLPPERSSQSSELEDTGTDSGEALSSGDDDDEISQVAGQPEPETANYVLSQYERVLAPSTNKQRIWRVFLRDAMVHINGQDLLLNQLQCQFDW : soluble
MMKLKFYLVYLWYKVLLKLGIKTDEIYYIGGSEALPPPLTKEEEEVLLNKLPKGDQAARSLLIERNLRLVVYIARKFENTGINIEDLISIGTIGLIKAVNTFNPEKKIKLATYASRCIENEILMHLRRNNKNRSEVSFDEPLNIDWDGNELLLSDVLGTDDDIITKDLEATVDRHLLMKALHQLNDREKQIMELRFGLAGGEEKTQKDVADMLGISQSYISRLEKRIIKRLRKEFNKMV : not soluble

soluble on expression in E. coli for ASLFPPGLHAIYGECRRLYPDQPNPLQVTAIVKYWLGGPDPLDYVSMYRNVGSPSANIPEHWHYISFGLSDLYGDNRVHEFTGTDGPSGFGFELTFRLKRETGESAPPTWPAELMQGLARYVFQSENTFCSGDHVSWHSPLDNSESRIQHMLLTEDPQMQPVQTPFGVVTFLQIVGVCTEELHSAQQWNGQGILELLRTVPIAGGPWLITDMRRGETIFEIDPHLQERVDKGIETD ? soluble

soluble on expression in E. coli for MERVNHLLQRLLGNQRFKQRYEQMKRYILEHPDVQPFLRAHERQLSADAVDRSLMKLYEFIEQHGNCRQCPGLERCNNMLPGYHPNLVVNGGRIDVEYDRCPKKVQHDERKRQESLIQSMFMPREILRASLSDVDLNDDGRIKAIRFAERFVAEYEPGKKMKGLYLHGSFGVGKTYLLAAIANELAKRNVSSLIVYVPELFREIKHSLQDQTMNEKLDYIKKVPVLMLDDLGAEAMSSWVRDDVFGPILQYRMFENLPTFFTSNFDMQQLAHHLTYSQRGEEEKVKAARIMERIRYLAYPIEITGPNRREQNI ? not soluble

Data credit: the DeepSol protein solubility set
